- method notes: Stability test (appearance by naked eye, purity by liquid chromatography after storage)
- Type: physicochemical
- recorded conditions: Initial; liquid chromatography, integral percentage method
Assign Purity (%) to each entry below.
Your reply should be a number followed by the unit it is expressed in.

Determine its reported Purity (%): C[C@H](Cc1cc2c(c(C(N)=O)c1)N(CCCO)CC2)NCCOc1ccccc1OCC(F)(F)F [amorphous, KMD-3213] 99.79%

Determine its reported Purity (%): C[C@H](Cc1cc2c(c(C(N)=O)c1)N(CCCO)CC2)NCCOc1ccccc1OCC(F)(F)F [β, KMD-3213] 99.83%

Determine its reported Purity (%): C[C@H](Cc1cc2c(c(C(N)=O)c1)N(CCCO)CC2)NCCOc1ccccc1OCC(F)(F)F [α, KMD-3213] 99.90%

Determine its reported Purity (%): C[C@H](Cc1cc2c(c(C(N)=O)c1)N(CCCO)CC2)NCCOc1ccccc1OCC(F)(F)F [γ, KMD-3213] 99.88%

----------
- method notes: Moisture absorption test (weight change after storage)
- Format: physicochemical
- recorded conditions: Condition 1: 25° C. and 60% relative humidity for 3 days
parameter measured: Change(%) of weight
All answers are understood in %, so give the number only.

Determine its reported Change(%) of weight: C[C@H](Cc1cc2c(c(C(N)=O)c1)N(CCCO)CC2)NCCOc1ccccc1OCC(F)(F)F [α, KMD-3213] −0.01

Determine its reported Change(%) of weight: C[C@H](Cc1cc2c(c(C(N)=O)c1)N(CCCO)CC2)NCCOc1ccccc1OCC(F)(F)F [γ, KMD-3213] 0.00

----------
- method notes: Moisture absorption test (weight change after storage)
- Format: physicochemical
- recorded conditions: Condition 2: 40° C. and 75% relative humidity for 3 days
- Procedure: In the same manner as that of Test Example 1, the crystals obtained in Examples 1-3 and the amorphous were used for the test. Approximately 1 g of test substance was weighed accurately and put it into a sample vial. After the test substance was allowed to stand in an opening constant temperature and humidity device under following condition, their differences of weights were measured. […]
Assign Change(%) of weight to each entry below.
All answers are understood in %, so give the number only.

Determine its reported Change(%) of weight: C[C@H](Cc1cc2c(c(C(N)=O)c1)N(CCCO)CC2)NCCOc1ccccc1OCC(F)(F)F [γ, KMD-3213] −0.19

Determine its reported Change(%) of weight: C[C@H](Cc1cc2c(c(C(N)=O)c1)N(CCCO)CC2)NCCOc1ccccc1OCC(F)(F)F [α, KMD-3213] −0.20

Determine its reported Change(%) of weight: C[C@H](Cc1cc2c(c(C(N)=O)c1)N(CCCO)CC2)NCCOc1ccccc1OCC(F)(F)F [β, KMD-3213] −0.08

----------
- method notes: Stability test (appearance by naked eye, purity by liquid chromatography after storage)
- Format: physicochemical
- recorded conditions: Condition 1: 40° C. for 28 days
parameter measured: Appearance

molecule: C[C@H](Cc1cc2c(c(C(N)=O)c1)N(CCCO)CC2)NCCOc1ccccc1OCC(F)(F)F [amorphous, KMD-3213]
recorded result: White powder
--
molecule: C[C@H](Cc1cc2c(c(C(N)=O)c1)N(CCCO)CC2)NCCOc1ccccc1OCC(F)(F)F [β, KMD-3213]
recorded result: Pale yellow powder
--
molecule: C[C@H](Cc1cc2c(c(C(N)=O)c1)N(CCCO)CC2)NCCOc1ccccc1OCC(F)(F)F [α, KMD-3213]
recorded result: White powder
--
molecule: C[C@H](Cc1cc2c(c(C(N)=O)c1)N(CCCO)CC2)NCCOc1ccccc1OCC(F)(F)F [γ, KMD-3213]
recorded result: Pale yellow powder
